Biological target: T1, human Gelatinase-A (human, UniProt P08253 110-660, limits assumed)
T1 sequence (looked up): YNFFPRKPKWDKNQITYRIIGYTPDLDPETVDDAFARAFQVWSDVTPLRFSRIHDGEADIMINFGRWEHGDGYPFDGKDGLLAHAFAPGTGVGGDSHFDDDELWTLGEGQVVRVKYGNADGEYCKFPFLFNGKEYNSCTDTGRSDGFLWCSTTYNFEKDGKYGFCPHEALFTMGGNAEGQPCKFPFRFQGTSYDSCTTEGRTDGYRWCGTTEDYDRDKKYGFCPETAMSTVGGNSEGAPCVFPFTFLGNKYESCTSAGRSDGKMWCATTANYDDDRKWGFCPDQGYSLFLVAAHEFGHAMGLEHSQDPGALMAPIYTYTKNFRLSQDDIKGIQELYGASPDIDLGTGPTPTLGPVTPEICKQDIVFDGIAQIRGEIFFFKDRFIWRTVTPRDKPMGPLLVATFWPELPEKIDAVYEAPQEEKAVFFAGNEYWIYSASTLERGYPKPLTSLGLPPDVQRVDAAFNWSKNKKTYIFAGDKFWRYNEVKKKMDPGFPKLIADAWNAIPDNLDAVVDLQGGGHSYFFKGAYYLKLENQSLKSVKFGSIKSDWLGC
Assay: cell-based or functional assay
*1 amine or outer side, *2 acyl side, *3 side chain or, on linkers, in order; H or OH if unused. [ ]: non-standard residue; d: D form. The star is where a group is joined. Dnp = O=[N+]([O-])c1ccc(*)c([N+](=O)[O-])c1; C(Me) = CSC[C@H](N[*:1])C(=O)[*:2]

{"BINDER": "Dnp-V[C(Me)]PKGITS[C(Me)]VFR-NH2 (SMILES CC[C@H](C)[C@H](NC(=O)CNC(=O)[C@H](CCCCN)NC(=O)[C@@H]1CCCN1C(=O)[C@H](CSC)NC(=O)[C@@H](Nc1ccc([N+](=O)[O-])cc1[N+](=O)[O-])C(C)C)C(=O)N[C@H](C(=O)N[C@@H](CO)C(=O)N[C@@H](CSC)C(=O)N[C@H](C(=O)N[C@@H](Cc1ccccc1)C(=O)N[C@@H](CCCNC(=N)N)C(N)=O)C(C)C)[C@@H](C)O) [Dnp-VC(Me)PKGITSC(Me)VFR-NH2]", "UNIT_LABEL": "unitless", "Selectivity v. Coll-3": 7}
